test system: Escherichia coli TOP10; experiment: shrunken log2 fold change of peptide-encoding DNA abundance (4.5 h post-induction vs induction); higher = less antimicrobial activity (less host growth inhibition); conditions: time post-induction: 4.5 h; library: site-saturation at positions 5, 18, 19, 20;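 note: peptides expressed intracellularly from a pBAD plasmid library in pooled LB shake-flask culture, induced with 0.3% L-arabinose, DNA abundance read by NGS, three biological replicates, DESeq2 with apeglm shrinkage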
Result Type: shrunken log2 fold change
Give the value as a plain number.

Example entries and their recorded answers appear below.
[
  {
    "Sequence Chain": "RRIRQRPPRLPRPRPRPWFNPRP",
    "Quantitative Readout": -0.359
  },
  {
    "Sequence Chain": "RRIRARPPRLPRPRPRPQSEPRP",
    "Quantitative Readout": 0.152
  },
  {
    "Sequence Chain": "RRIRFRPPRLPRPRPRPDPMPRP",
    "Quantitative Readout": -0.196
  },
  {
    "Sequence Chain": "RRIRKRPPRLPRPRPRPHNLPRP",
    "Quantitative Readout": 0.0314
  },
  {
    "Sequence Chain": "RRIRSRPPRLPRPRPRPNIFPRP",
    "Quantitative Readout": -0.138
  }
]

Lab note: RRIRNRPPRLPRPRPRPFFRPRP gave shrunken log2 fold change of -0.378

Lab note: RRIRHRPPRLPRPRPRPMWFPRP gave shrunken log2 fold change of -0.218

Attribution: the supplement of paper PMC9112550
